Target: Human recombinant PDE10A (hPDE10A) (Homo sapiens, UniProt Q9Y233)
Construct: His tag (inferred from metal chelate purification); made in house; host or cells: Sf9 insect cells (baculovirus)
Sequence (Q9Y233 267-1055): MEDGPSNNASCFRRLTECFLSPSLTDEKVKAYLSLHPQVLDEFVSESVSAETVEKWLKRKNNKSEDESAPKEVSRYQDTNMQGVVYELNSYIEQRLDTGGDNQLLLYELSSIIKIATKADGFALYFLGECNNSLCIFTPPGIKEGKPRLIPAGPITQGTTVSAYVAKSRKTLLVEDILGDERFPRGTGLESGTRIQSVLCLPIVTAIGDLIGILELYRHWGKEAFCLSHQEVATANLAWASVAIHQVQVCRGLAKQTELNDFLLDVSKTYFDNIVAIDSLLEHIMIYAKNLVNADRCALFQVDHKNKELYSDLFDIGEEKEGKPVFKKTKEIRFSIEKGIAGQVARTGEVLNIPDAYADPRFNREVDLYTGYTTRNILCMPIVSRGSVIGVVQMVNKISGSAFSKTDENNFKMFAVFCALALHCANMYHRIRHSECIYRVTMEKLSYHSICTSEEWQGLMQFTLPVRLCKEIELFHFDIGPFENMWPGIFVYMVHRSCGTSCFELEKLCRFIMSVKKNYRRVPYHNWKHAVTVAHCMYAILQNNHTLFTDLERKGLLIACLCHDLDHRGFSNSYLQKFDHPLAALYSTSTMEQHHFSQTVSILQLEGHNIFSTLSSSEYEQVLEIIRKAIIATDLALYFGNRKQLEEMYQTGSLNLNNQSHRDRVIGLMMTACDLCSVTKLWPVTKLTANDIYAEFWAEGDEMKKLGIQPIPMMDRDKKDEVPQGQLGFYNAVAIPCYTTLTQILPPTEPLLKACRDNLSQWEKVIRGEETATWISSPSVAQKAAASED
Assay: In vitro assay PDE10A, human clone (SPA, 3H-cAMP hydrolysis)
Format: biochemical
Conditions: human clone by default (no (r) mark); read-out: hPDE10A2 or rPDE10A2 pIC50 (converted)
outcome_measure: IC50 (nM)
Unit nM implied. Number only.

Task item: Name the reported IC50 value associated with the molecule C/C(=C\c1ccccc1)C(=O)N1[C@H]2CC[C@H](c3cc(C(F)F)nc4ncnn34)[C@@H]1CC2 [Compound 371]
Reply: 389

Task item: Repeat for the following molecule: O=C(c1cc(F)cc(F)c1)N1[C@H]2CC[C@H](c3cc(C(F)F)nc4ncnn34)[C@@H]1CC2 [Compound 341]
Reply: 5010

Task item: Repeat for the following molecule: COc1cc(C(=O)N2[C@H]3CC[C@H](c4cc(C(F)F)nc5ncnn45)[C@@H]2CC3)cc(OC)n1 [Compound 301]
Reply: 1260

Task item: Repeat for the following molecule: COc1ccc(C(=O)N2CC[C@@H](C)[C@H](c3cc(C(F)F)nc4ncnn34)C2)cc1C#N [Compound 265]
Reply: 37.2

Task item: Repeat for the following molecule: O=C(c1cc(Cl)cc(Cl)c1)N1[C@H]2CC[C@H](c3cc(C(F)F)nc4ncnn34)[C@@H]1CC2 [Compound 333]
Reply: 708
